# Target Desc: Quadruplex DNA
# Protocol Text: Binding affinity to 5'-Cy5-labelled parallel c-MYC Pu24T G4 DNA (unknown origin) assessed as dissociation constant by MST analysis
# Format: nucleic-acid assay
Recorded Kd for the following molecules

[
  {
    "Record Smiles": "CCN(CC)CCCNc1cc(C)nc(Nc2nc(C)c3ccc4c(c3n2)CCC4)n1",
    "Target Desc": "Quadruplex DNA",
    "Kd": "360 nM"
  },
  {
    "Record Smiles": "Cc1cc(NCCCN2CCN(C)CC2)nc(Nc2nc(C)c3ccc4c(c3n2)CCCC4)n1",
    "Target Desc": "Quadruplex DNA",
    "Kd": "280 nM"
  },
  {
    "Record Smiles": "Cc1cc(NCCCN2CCCCC2)nc(Nc2nc(C)c3ccc4c(c3n2)CCC4)n1",
    "Target Desc": "Quadruplex DNA",
    "Kd": "285 nM"
  },
  {
    "Record Smiles": "Cc1cc(NCCCN2CCCCC2)nc(Nc2nc(C)c3ccc4c(c3n2)CCCC4)n1",
    "Target Desc": "Quadruplex DNA",
    "Kd": "175 nM"
  },
  {
    "Record Smiles": "Cc1cc(NCCCN2CCN(C)CC2)nc(Nc2nc(C)c3ccc4c(c3n2)CCC4)n1",
    "Target Desc": "Quadruplex DNA",
    "Kd": "265 nM"
  },
  {
    "Record Smiles": "CCN(CC)CCCNc1cc(C)nc(Nc2nc(C)c3ccc4c(c3n2)CCCC4)n1",
    "Target Desc": "Quadruplex DNA",
    "Kd": "230 nM"
  },
  {
    "Record Smiles": "Cc1cc(NCCCN2CCCC2)nc(Nc2nc(C)c3ccc4c(c3n2)CCC4)n1",
    "Target Desc": "Quadruplex DNA",
    "Kd": "275 nM"
  },
  {
    "Record Smiles": "Cc1cc(NCCCN2CCCC2)nc(Nc2nc(C)c3ccc4c(c3n2)CCCC4)n1",
    "Target Desc": "Quadruplex DNA",
    "Kd": "245 nM"
  }
]

====

# Tested on: Quadruplex DNA
# Protocol Text: Binding affinity to FAM/TAMRA-labelled c-KIT1 G4 DNA (unknown origin) assessed as thermal stabilization at 1 to 8 uM measured at 10 to 95 degreeC by FRET analysis
# Format: nucleic-acid assay
# Condition Summary: dose 1-8 µM
The source made the active and inactive calls. The calls are words filed in the database; no cut-off is given here.

[
  {
    "Record Smiles": "Cc1cc(NCCCN2CCCC2)nc(Nc2nc(C)c3ccc4c(c3n2)CCCC4)n1",
    "Target Desc": "Quadruplex DNA",
    "Activity": "Active"
  },
  {
    "Record Smiles": "CCN(CC)CCCNc1cc(C)nc(Nc2nc(C)c3ccc4c(c3n2)CCC4)n1",
    "Target Desc": "Quadruplex DNA",
    "Activity": "Active"
  },
  {
    "Record Smiles": "Cc1cc(NCCCN2CCN(C)CC2)nc(Nc2nc(C)c3ccc4c(c3n2)CCCC4)n1",
    "Target Desc": "Quadruplex DNA",
    "Activity": "Active"
  },
  {
    "Record Smiles": "CCN(CC)CCCNc1cc(C)nc(Nc2nc(C)c3ccc4c(c3n2)CCCC4)n1",
    "Target Desc": "Quadruplex DNA",
    "Activity": "Active"
  },
  {
    "Record Smiles": "Cc1cc(NCCCN2CCCC2)nc(Nc2nc(C)c3ccc4c(c3n2)CCC4)n1",
    "Target Desc": "Quadruplex DNA",
    "Activity": "Active"
  },
  {
    "Record Smiles": "Cc1cc(NCCCN2CCN(C)CC2)nc(Nc2nc(C)c3ccc4c(c3n2)CCC4)n1",
    "Target Desc": "Quadruplex DNA",
    "Activity": "Active"
  },
  {
    "Record Smiles": "Cc1cc(NCCCN2CCCCC2)nc(Nc2nc(C)c3ccc4c(c3n2)CCCC4)n1",
    "Target Desc": "Quadruplex DNA",
    "Activity": "Active"
  },
  {
    "Record Smiles": "Cc1cc(NCCCN2CCCCC2)nc(Nc2nc(C)c3ccc4c(c3n2)CCC4)n1",
    "Target Desc": "Quadruplex DNA",
    "Activity": "Active"
  }
]

====

# System: Quadruplex DNA
# Protocol Text: Binding affinity to FAM/TAMRA-labelled parallel c-MYC Pu24T G4 DNA (unknown origin) assessed as thermal stabilization at 1 to 8 uM measured at 10 to 95 degreeC by FRET analysis
# Type: nucleic-acid assay
# Condition Summary: dose 1-8 µM
Active and inactive are the calls of the source. No cut-off for these calls is given here.
Outcomes: active, inactive

[
  {
    "Record Smiles": "Cc1cc(N2CCN(C(=O)OC(C)(C)C)CC2)nc(Nc2nc(C)c3ccc4c(c3n2)CCCC4)n1",
    "Label": "inactive"
  },
  {
    "Record Smiles": "CCN(CC)CCCNc1cc(C)nc(Nc2nc(C)c3ccc4c(c3n2)CCC4)n1",
    "Label": "active"
  },
  {
    "Record Smiles": "Cc1cc(NCCCN2CCN(C)CC2)nc(Nc2nc(C)c3ccc4c(c3n2)CCC4)n1",
    "Label": "active"
  },
  {
    "Record Smiles": "Cc1cc(N2CCN(C)CC2)nc(Nc2nc(C)c3ccc4c(c3n2)CCCC4)n1",
    "Label": "active"
  },
  {
    "Record Smiles": "Cc1cc(NCCCN2CCCC2)nc(Nc2nc(C)c3ccc4c(c3n2)CCC4)n1",
    "Label": "active"
  },
  {
    "Record Smiles": "Cc1cc(NCCCN)nc(Nc2nc(C)c3ccc4c(c3n2)CCCC4)n1",
    "Label": "active"
  },
  {
    "Record Smiles": "Cc1cc(NCCCN2CCN(C)CC2)nc(Nc2nc(C)c3ccc4c(c3n2)CCCC4)n1",
    "Label": "active"
  }
]

====

# System: Quadruplex DNA
# Protocol Text: Binding affinity to FAM/TAMRA-labelled parallel c-MYC Pu24T G4 DNA (unknown origin) assessed as thermal stabilization at 1 to 8 uM measured at 10 to 95 degreeC by FRET analysis
# Format: nucleic-acid assay
# Condition Summary: dose 1-8 µM
Activity calls are given as the source filed them. The calls are words filed in the database; no cut-off is given here.
Outcomes: active, inactive

[
  {
    "Record Smiles": "Cc1cc(N2CCN(c3ncccn3)CC2)nc(Nc2nc(C)c3ccc4c(c3n2)CCCC4)n1",
    "Label": "inactive"
  },
  {
    "Record Smiles": "CCN(CC)CCNc1cc(C)nc(Nc2nc(C)c3ccc4c(c3n2)CCCC4)n1",
    "Label": "active"
  },
  {
    "Record Smiles": "Cc1cc(NCCCN2CCCC2)nc(Nc2nc(C)c3ccc4c(c3n2)CCCC4)n1",
    "Label": "active"
  },
  {
    "Record Smiles": "CCOC(=O)CCN1CCN(c2cc(C)nc(Nc3nc(C)c4ccc5c(c4n3)CCCC5)n2)CC1",
    "Label": "inactive"
  },
  {
    "Record Smiles": "Cc1cc(N2CCNCC2)nc(Nc2nc(C)c3ccc4c(c3n2)CCC4)n1",
    "Label": "active"
  },
  {
    "Record Smiles": "Cc1cc(N2CCNCC2)nc(Nc2nc(C)c3ccc4c(c3n2)CCCC4)n1",
    "Label": "active"
  },
  {
    "Record Smiles": "Cc1cc(NCCN2CCN(C)CC2)nc(Nc2nc(C)c3ccc4c(c3n2)CCC4)n1",
    "Label": "active"
  },
  {
    "Record Smiles": "Cc1cc(NCCN2CCNCC2)nc(Nc2nc(C)c3ccc4c(c3n2)CCCC4)n1",
    "Label": "active"
  },
  {
    "Record Smiles": "Cc1cc(N(C)C)nc(Nc2nc(C)c3ccc4c(c3n2)CCCC4)n1",
    "Label": "active"
  },
  {
    "Record Smiles": "Cc1cc(NCCCN2CCCCC2)nc(Nc2nc(C)c3ccc4c(c3n2)CCCC4)n1",
    "Label": "active"
  }
]

====

# Tested on: Quadruplex DNA
# Protocol Text: Binding affinity to FAM/TAMRA-labelled parallel 25ceb G4 DNA (unknown origin) assessed as thermal stabilization at 1 to 8 uM measured at 10 to 95 degreeC by FRET analysis
# Format: nucleic-acid assay
# Condition Summary: dose 1-8 µM
The source made the active and inactive calls. The rule behind the calls is not given here.

[
  {
    "Record Smiles": "Cc1cc(NCCCN2CCCCC2)nc(Nc2nc(C)c3ccc4c(c3n2)CCCC4)n1",
    "Activity": "inactive"
  },
  {
    "Record Smiles": "Cc1cc(NCCCN2CCCC2)nc(Nc2nc(C)c3ccc4c(c3n2)CCCC4)n1",
    "Activity": "inactive"
  },
  {
    "Record Smiles": "CCN(CC)CCCNc1cc(C)nc(Nc2nc(C)c3ccc4c(c3n2)CCCC4)n1",
    "Activity": "inactive"
  },
  {
    "Record Smiles": "Cc1cc(NCCCN2CCN(C)CC2)nc(Nc2nc(C)c3ccc4c(c3n2)CCCC4)n1",
    "Activity": "inactive"
  },
  {
    "Record Smiles": "CCN(CC)CCCNc1cc(C)nc(Nc2nc(C)c3ccc4c(c3n2)CCC4)n1",
    "Activity": "inactive"
  },
  {
    "Record Smiles": "Cc1cc(NCCCN2CCCCC2)nc(Nc2nc(C)c3ccc4c(c3n2)CCC4)n1",
    "Activity": "inactive"
  },
  {
    "Record Smiles": "Cc1cc(NCCCN2CCN(C)CC2)nc(Nc2nc(C)c3ccc4c(c3n2)CCC4)n1",
    "Activity": "inactive"
  },
  {
    "Record Smiles": "Cc1cc(NCCCN2CCCC2)nc(Nc2nc(C)c3ccc4c(c3n2)CCC4)n1",
    "Activity": "inactive"
  }
]
